Would you kindly list pIC50 for each of these compounds?
Target: HDAC6 (Homo sapiens, UniProt Q9UBN7)
Sequence (Q9UBN7 whole entry): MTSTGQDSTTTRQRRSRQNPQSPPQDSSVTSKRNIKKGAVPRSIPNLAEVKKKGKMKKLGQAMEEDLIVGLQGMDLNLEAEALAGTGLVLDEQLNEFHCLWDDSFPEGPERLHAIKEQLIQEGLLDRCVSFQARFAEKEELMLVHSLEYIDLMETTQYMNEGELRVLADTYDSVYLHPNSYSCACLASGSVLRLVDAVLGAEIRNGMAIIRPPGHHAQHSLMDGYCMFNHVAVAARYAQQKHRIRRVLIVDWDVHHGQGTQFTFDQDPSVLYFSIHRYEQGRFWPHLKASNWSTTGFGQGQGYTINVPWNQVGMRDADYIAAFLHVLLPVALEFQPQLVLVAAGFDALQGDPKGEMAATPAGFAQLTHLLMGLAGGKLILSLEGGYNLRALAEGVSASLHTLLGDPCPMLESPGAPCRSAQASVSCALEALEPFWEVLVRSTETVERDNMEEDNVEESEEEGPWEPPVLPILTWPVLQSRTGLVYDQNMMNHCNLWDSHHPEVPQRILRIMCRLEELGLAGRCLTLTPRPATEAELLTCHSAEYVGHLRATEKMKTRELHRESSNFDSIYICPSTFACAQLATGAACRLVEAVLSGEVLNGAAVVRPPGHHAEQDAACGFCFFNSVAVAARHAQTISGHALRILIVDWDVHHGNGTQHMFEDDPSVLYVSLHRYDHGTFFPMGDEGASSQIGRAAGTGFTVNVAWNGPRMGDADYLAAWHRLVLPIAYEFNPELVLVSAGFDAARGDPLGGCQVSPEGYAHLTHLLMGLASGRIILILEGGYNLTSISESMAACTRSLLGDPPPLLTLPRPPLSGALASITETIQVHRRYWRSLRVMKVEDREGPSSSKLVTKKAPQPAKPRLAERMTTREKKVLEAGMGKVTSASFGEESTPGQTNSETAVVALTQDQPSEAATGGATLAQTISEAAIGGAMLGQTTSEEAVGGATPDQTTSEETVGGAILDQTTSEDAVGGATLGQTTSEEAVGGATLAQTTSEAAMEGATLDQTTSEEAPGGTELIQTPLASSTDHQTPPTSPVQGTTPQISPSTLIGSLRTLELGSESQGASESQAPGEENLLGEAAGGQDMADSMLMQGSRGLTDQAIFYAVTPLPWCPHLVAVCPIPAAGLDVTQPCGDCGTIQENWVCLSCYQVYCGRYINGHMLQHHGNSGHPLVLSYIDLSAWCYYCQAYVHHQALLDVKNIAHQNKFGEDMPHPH
Give bare numbers, as −log10 of the molar value.

Use the examples below as a reference point.
[[record]]
compound = "O=C(NO)c1ccc(CNc2nc3cccc(-c4ccccc4Cl)n3n2)cc1 [Compound 16i]"
test_result = 7.91

[[record]]
compound = "COc1cccc(-c2cccc3nc(NCc4ccc(C(=O)NO)cc4)nn23)c1 [Compound 16c]"
test_result = 8.08

[[record]]
compound = "O=C(NO)c1ccc(CNc2nc3cccc(-c4ccccc4)n3n2)cc1 [Compound 16a]"
test_result = 8.02

[[record]]
compound = "O=C(NO)c1ccc(CNc2nc3cccc(-c4ccc(F)cc4)n3n2)cc1 [Compound 16j]"
test_result = 8.05


Field: pIC50 (HDAC6 (Homo sapiens, UniProt Q9UBN7)). Entry: O=C(NO)c1ccc(CNc2nc3cccc(-c4ccc(C(F)(F)F)cc4)n3n2)cc1 [Compound 16l]
7.94

====

Test system: MDA-MB-231
Experiment: cells
Format: cell-based
Settings: Homo sapiens, MDA-MB-231, read-out: Antiproliferative effect IC50, MDA-MB-231
Value Type: pIC50
Answers are plain numbers, as −log10 of the molar value.

# return pIC50 for each item in the list
1. O=C(NO)c1ccc(CNc2nc3cccc(-c4ccc(F)cc4)n3n2)cc1 [Compound 16j]
2. O=C(NO)c1ccc(CNc2nc3cccc(-c4ccc5c(c4)OCO5)n3n2)cc1 [Compound 19]
3. COc1cccc(-c2cccc3nc(NCc4ccc(C(=O)NO)cc4)nn23)c1 [Compound 16c]
4. O=C(Nc1nc2cccc(-c3ccc(CN4CCS(=O)(=O)CC4)cc3)n2n1)C1CC1 [Filgotinib, reference compound]
5. O=C(NO)c1ccc(CNc2nc3cccc(-c4ccccc4)n3n2)cc1 [Compound 16a]
6. COc1ccc(-c2cccc3nc(NCc4ccc(C(=O)NO)cc4)nn23)cc1 [Compound 16b]

[6.06, 6.12, 6.02, 4.57, 6.05, 6.08]

The values you see were collected from paper PMC11463018.
